The measurements presented in this section are drawn from PubChem BioAssay (NCI).

# System: U251 CNS
# assay_comment: NCI tumour cell line growth inhibition, 48 h
I'd appreciate it if you could supply TGI values for the items below.

Would you please look over these solved cases?
Clc1ccc(/C=C/c2ccc3ccccc3n2)cc1 | > 100 µM
CN/N=C(/c1nc2ccc([N+](=O)[O-])cc2[nH]c1=O)C(O)c1ccc(C(O)/C(=N\NC)c2nc3ccc([N+](=O)[O-])cc3[nH]c2=O)cc1 (centres undefined) | > 100 µM
CC[C@@H](CCCCC1CC[C@H]2CC(=O)C[C@@H]12)OC (some centres undefined) | > 100 µM
C[C@H]1C2Cc3cc(O)ccc3[C@@]1(C)CCN2CCc1ccc(N)cc1 | 33.9 µM
COc1cc(C2=NN(C(C)=O)C(c3cc(OC)c(OC)c(OC)c3)C2)ccc1O (centres undefined) | > 100 µM
CCCCCCCCC/C=C1/CC(CO)(COC(=O)CC(C(C)C)C(C)C)OC1=O (centres undefined) | 25.6 µM

Answer for every listed entry: what is its TGI? The entries follow.
1. Cn1cc(-c2cc(-c3cn(C)c4ccc(Cl)cc34)[nH]n2)c2cc(Cl)ccc21
2. Cc1cccc2[nH]c3c(c(O)cc4[nH]c5cccc(C)c5c(=O)c43)c(=O)c12
3. COc1ccc(/C=C2\C[C@H]3[C@@H]4CCC5=C/C(=N/O)CC[C@]5(C)[C@H]4CC[C@]3(C)\C2=N\O)cc1

Ans.
12.9 µM
> 10 µM
> 100 µM
